Items are presented alongside their recorded melting point.

Recorded results for 5 molecules are shown here.
C=Cc1c(F)c(N2CCN(CC)CC2)c(F)c2c1c(=O)c(C(=O)O)cn2C1CC1	198 to 200 °C
COC(=O)c1ccc2c(c1)SCCCC2NC(=O)OCc1ccccc1 (stereo not drawn)	132 to 134 °C
CC(C)(C)OC(=O)N1CCN(C(=O)c2cc(C(F)(F)F)cc(C(F)(F)F)c2)[C@H](Cc2c[nH]c3ccccc23)C1	155 to 156 °C
C=C(C)COc1cc(C)c(NC=O)c(C)c1CC(=C)C	109 °C
CN(C)c1ccc(NC2=CC(=O)C(N)=CC2=O)cc1	300 °C

INPUT: Indicate the recorded melting point value for this molecule: CC(C)c1nc(CN(C)C(=O)NC(C(=O)NC(Cc2ccccc2)CC(O)C(Cc2ccccc2)NC(=O)OCc2cncs2)C(C)C)cs1 (stereo not drawn)
OUTPUT: 122 to 123 °C

INPUT: Complete the entry with melting point for CN(C)Cc1cnc2cc(NC(=O)c3ccc(-c4ccc(Cl)cc4)cc3)ccc2c1
OUTPUT: 236 to 238 °C

INPUT: Note down melting point recorded for CCCCCCCCCCOc1cc(OCCCCCCCCCC)cc(N(CC(=O)O)CC(=O)OC)c1
OUTPUT: 61 to 62 °C

INPUT: Item O=C(O)c1cc(SCc2ccsc2)c(-c2ccccc2)c([N+](=O)[O-])c1 : provide melting point
OUTPUT: 159 to 161 °C

INPUT: Find the measured melting point of Cc1noc(C)c1-c1cncc(OC2SCC(O)C(O)C2O)c1 (stereo not drawn) and report it.
OUTPUT: 222 to 223 °C
